- study system: T1, human LAG3-Fc (R&D Systems #2319-L3) (human, UniProt P18627 23-450)
- T1 construct: Bought protein; also called Human LAG3 (Biacore)
- T1 sequence: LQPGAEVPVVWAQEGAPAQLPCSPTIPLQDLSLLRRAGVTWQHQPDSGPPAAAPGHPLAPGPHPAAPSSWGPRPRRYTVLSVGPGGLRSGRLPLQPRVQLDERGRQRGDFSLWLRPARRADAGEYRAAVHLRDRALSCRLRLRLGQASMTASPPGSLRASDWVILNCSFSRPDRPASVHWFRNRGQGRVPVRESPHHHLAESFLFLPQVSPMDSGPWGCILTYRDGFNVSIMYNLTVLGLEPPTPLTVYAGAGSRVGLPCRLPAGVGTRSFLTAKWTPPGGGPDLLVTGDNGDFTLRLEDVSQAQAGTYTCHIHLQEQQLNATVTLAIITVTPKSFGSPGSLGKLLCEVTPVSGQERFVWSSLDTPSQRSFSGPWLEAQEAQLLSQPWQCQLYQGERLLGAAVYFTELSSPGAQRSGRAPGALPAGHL
- assay protocol: SPR (Biacore), antibody captured by anti-Flag, LAG3-Fc as analyte, 25 C
measured attribute: koff (s⁻¹)
Respond with the bare value in s⁻¹.

Record summary for h5G11-2 (scFv, V domains shown) VH: QVQLVQSGAEVKKPGSSVKVSCKASGFNIKDYYMHWVRQAPGQGLEWIAWIDPENGDTEYAPKFQGRVTITADESTSTAYMELSSLRSEDTAVYYCNAPDALDYWGQGTLVTVSS VL: DVVMTQSPLSLPVTLGQPASISCKSSQSLLDSDGKTYLNWFQQRPGQSPRRLIYLVSKLDSGVPDRFSGSGSGTDFTLKISRVEAEDVGVYYCWQGSHFPQTFGQGTKVEIK : reported koff = 0.0023
